Source of measurements: patent US7132568B2

- experimental_target: Cat D (Homo sapiens, UniProt P07339)
- Sequence (P07339 65-412): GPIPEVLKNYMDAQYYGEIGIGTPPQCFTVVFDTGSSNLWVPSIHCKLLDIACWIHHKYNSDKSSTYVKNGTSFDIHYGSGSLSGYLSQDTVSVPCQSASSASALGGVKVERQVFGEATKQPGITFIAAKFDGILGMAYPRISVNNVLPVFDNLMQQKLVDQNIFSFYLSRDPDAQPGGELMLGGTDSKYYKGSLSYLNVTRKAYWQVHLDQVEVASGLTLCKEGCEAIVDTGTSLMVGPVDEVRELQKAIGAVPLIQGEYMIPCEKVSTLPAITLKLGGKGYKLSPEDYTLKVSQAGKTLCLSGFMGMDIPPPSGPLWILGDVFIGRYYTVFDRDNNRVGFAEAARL
measurement_type: Ki

- smiles_string: "CCCN(CCC)C(=O)c1cccc(C(=O)N[C@@H](CC(C)C)[C@@H](O)C[C@@H](C)C(=O)N[C@H](C(=O)NCc2ccccc2)C(C)C)c1"
  experimental_target: "Cat D (Homo sapiens, UniProt P07339)"
  measurement_type: "Ki"
  result: "20 nM"

* * *

- test_protocol: Plasma stability in human plasma
- Type: in vitro ADME
- test_parameters: 37° C.
measurement_type: recovery at 1 h, 1 μM (%)

- molecule: "CCCN(CCC)C(=O)c1cccc(C(=O)N[C@@H](CC(C)C)[C@@H](N)C[C@@H](C)C(=O)N[C@H](C(=O)NCc2ccccc2)C(C)C)c1 [R = NH2]"
  measured_number: 100
- molecule: "CCCN(CCC)C(=O)c1cccc(C(=O)N[C@@H](CC(C)C)[C@@H](O)C[C@@H](C)C(=O)N[C@H](C(=O)NCc2ccccc2)C(C)C)c1 [R = OH]"
  measured_number: 100
